method-description: LogD
Format: physicochemical
stated-conditions: called measured LogD values
assay-readout: logD
Just the number, please, no unit after it.

// logD lookup, key: O=C(O)COc1ccc(Cc2ccccc2)cc1
0.27

What value of logD has been recorded for this entry: O=C(O)C(Cc1ccccc1)Oc1ccc(Cc2ccccc2)cc1 (centres unmarked)
2.62

###

Give measured inhibition at 100 µM for each item. Keep answers brief.
experimental-system: FAAH Human recombinant (Homo sapiens, UniProt O00519)
Construct: purchased Cayman Chemical
Sequence (O00519 1-579): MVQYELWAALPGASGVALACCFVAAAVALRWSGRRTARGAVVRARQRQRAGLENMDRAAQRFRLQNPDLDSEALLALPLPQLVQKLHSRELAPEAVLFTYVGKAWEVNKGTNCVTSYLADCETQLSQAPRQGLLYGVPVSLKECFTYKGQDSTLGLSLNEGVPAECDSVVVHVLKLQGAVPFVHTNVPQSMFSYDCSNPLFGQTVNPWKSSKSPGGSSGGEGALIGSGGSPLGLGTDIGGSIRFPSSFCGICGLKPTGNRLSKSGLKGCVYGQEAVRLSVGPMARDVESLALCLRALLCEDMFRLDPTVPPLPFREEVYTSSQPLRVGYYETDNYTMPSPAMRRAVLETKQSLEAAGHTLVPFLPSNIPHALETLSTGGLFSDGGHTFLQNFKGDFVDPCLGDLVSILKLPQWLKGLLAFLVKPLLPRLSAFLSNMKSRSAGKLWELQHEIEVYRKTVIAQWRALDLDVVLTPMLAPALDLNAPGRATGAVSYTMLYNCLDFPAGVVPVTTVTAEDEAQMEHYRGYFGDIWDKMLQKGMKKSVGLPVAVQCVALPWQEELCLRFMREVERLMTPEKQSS
method-description: FAAH inhibition assay (fluorometric, AMC-AA substrate)
Format: biochemical
stated-conditions: read-out: FAAH % inhibition @ 100 μM
Supply the numeric figure in %, leaving out any unit text.

Which inhibition at 100 µM is reported for this compound? CCCCCCCN(CCc1ccc(O[C@@H](C)C(=O)O)cc1)c1nc2ccccc2o1 [Compound 25]
45.1

Returns the measured inhibition at 100 µM for the input compound. Input: O=C(/C=C/c1ccc(O)c(O)c1)O[C@H](Cc1ccc(O)c(O)c1)C(=O)O [Compound 4, Rosmarinic acid]
62

Item under review: CCCCCCCN(CCc1ccc(O[C@H](C)C(=O)O)cc1)c1nc2ccccc2o1 [Compound 26] . Reported inhibition at 100 µM?
35

Report inhibition at 100 µM for O=C(O)COc1ccc(CCc2ccccc2)cc1 [Compound 15, 4-phenethyl-phenoxyacetic acid] please.
63

Name the reported inhibition at 100 µM value associated with the compound O=C(Cc1ccccc1)c1ccc(O[C@@H](Cc2ccccc2)C(=O)O)cc1 [Compound 21]
34

Any idea what inhibition at 100 µM was measured for O=C(O)C(Cc1ccccc1)Oc1ccc(/C=C\c2ccccc2)cc1 (stereo not shown) [Compound 19] ?
30.5

Query (compound): CC(Oc1ccc(Cc2ccccc2)cc1)C(=O)O (racemic) [Compound 13, (R,S)-2-(4-benzyl)-phenoxypropanoic acid] ; field requested: inhibition at 100 µM
30

Looking for the measured inhibition at 100 µM of CCCc1c(OCCCOc2ccc(OCC(=O)O)cc2)ccc(C(C)=O)c1O [Compound 3, L165,041, reference compound] , can you help?
40

Reported inhibition at 100 µM for CC(Oc1ccc(CCc2ccccc2)cc1)C(=O)O (racemic) [Compound 16] : what is it?
32.2

Please give the measured inhibition at 100 µM for this compound: O=C(O)C(Cc1ccccc1)Oc1ccc(NCc2ccccc2)cc1 (stereo not shown) [Compound 20]
39.2
